From: patent US20250320312A1

- MEASUREMENT TARGET: BSA (UniProt P02769)
- Sequence (P02769 25-607 limits assumed): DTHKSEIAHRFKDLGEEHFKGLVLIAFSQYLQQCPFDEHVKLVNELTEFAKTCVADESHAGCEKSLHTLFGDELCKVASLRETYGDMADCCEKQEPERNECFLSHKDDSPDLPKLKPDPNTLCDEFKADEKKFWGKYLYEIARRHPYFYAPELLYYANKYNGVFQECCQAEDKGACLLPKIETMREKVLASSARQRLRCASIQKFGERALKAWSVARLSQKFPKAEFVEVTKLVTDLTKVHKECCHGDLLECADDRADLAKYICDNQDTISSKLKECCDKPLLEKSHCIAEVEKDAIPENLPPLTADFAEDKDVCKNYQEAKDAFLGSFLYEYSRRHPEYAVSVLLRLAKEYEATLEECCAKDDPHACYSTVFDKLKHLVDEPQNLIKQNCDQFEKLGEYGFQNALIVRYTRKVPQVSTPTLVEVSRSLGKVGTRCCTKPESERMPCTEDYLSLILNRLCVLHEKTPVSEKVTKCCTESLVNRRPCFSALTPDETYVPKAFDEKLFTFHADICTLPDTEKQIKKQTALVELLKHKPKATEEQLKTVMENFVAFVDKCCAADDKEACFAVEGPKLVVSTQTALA
- TEST DETAILS: scFv ELISA
# OD450 annotations

[
  {
    "BINDER": "PcOxP_DB02_H08 (scFv, V domains shown, scFv in periplasmic extract) VH: EVQLLESGGGLVQPGGSLRLSCAASGFTFSDAYMEWVRQAPGKGLEWVAASRNKANDYTTEYADSVKGRFTISRDNSKNTLYLQMNSLRAEDTAVYYCARDYYGSHYWYFDVWGQGTLVTVSS VL: DIVMTQSPDSLAVSLGERATINCTSSQSLYSSKHNKHYLAWYQQKPGQPPKLLIYGASNRYIGVPDRFSGSGSGTDFTLTISSLQAEDVAVYYCAQFYSYPLTFGGGTKVEIK",
    "UNIT DESCRIPTOR": "OD450",
    "OD450": 0.07
  },
  {
    "BINDER": "PcOxP_DB03_A08 (scFv, V domains shown, scFv in periplasmic extract) VH: EVQLLESGGGLVQPGGSLRLSCAASGFTFSDVYMEWVRQAPGKGLEWVAASRNKANDYTTEYADSVKGRFTISRDNSKNTLYLQMNSLRAEDTAVYYCARDYYGSSYWYFDVWGQGTLVTVSS VL: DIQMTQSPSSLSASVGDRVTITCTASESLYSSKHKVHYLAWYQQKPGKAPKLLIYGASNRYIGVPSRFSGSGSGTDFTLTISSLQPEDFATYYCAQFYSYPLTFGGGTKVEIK",
    "UNIT DESCRIPTOR": "OD450",
    "OD450": 0.11
  },
  {
    "BINDER": "PcOxP_DB01_B07 (scFv, V domains shown, scFv in periplasmic extract) VH: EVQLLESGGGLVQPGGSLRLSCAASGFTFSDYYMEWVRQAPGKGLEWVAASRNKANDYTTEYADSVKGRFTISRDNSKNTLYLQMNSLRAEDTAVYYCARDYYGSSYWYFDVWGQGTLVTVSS VL: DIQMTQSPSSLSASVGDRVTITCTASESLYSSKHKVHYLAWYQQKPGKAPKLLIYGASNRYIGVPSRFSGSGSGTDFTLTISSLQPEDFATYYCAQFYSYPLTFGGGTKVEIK",
    "UNIT DESCRIPTOR": "OD450",
    "OD450": 0.11
  },
  {
    "BINDER": "PcOxP_DB01_D12 (scFv, V domains shown, scFv in periplasmic extract) VH: EVQLLESGGGLVQPGGSLRLSCAASGFTFSDYYMEWVRQAPGKGLEWVAASRNKYNDYTTEYADSVKGRFTISRDNSKNTLYLQMNSLRAEDTAVYYCARDYYGSSYWYFDVWGQGTLVTVSS VL: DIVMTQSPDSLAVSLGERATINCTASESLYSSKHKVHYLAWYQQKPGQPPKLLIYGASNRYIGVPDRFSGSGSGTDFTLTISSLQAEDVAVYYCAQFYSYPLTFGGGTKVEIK",
    "UNIT DESCRIPTOR": "OD450",
    "OD450": 0.06
  },
  {
    "BINDER": "PcOxP_DB02_E02 (scFv, V domains shown, scFv in periplasmic extract) VH: EVQLLESGGGLVQPGGSLRLSCAASGFTFSDEYMEWVRQAPGKGLEWVAASRNSGNSYTTAYADSVKGRFTISRDNSKNTLYLQMNSLRAEDTAVYYCARDYYGSSYWYFDVWGQGTLVTVSS VL: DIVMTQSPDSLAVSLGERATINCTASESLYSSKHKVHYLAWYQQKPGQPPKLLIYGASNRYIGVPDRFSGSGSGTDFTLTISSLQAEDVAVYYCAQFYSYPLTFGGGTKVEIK",
    "UNIT DESCRIPTOR": "OD450",
    "OD450": 0.06
  }
]
